Field: log10 of EC50. Provide a value for each of the binders that follow.
biological target: T1, huNav1.7α(F276V) + β1-β2-β3 (human, UniProt Q15858 1-1988; A5A6L6 19-218; O60939 30-215; Q2KI11 23-215); test: binding FACS, CHO FlpIn cells
T1 construct: polyprotein as encoded, P2A sites liberate the subunits; the entry already carries F276V; also called huNav1.7(F276V)-beta1-beta2-beta3
Remember, log10 of EC50, in nM.

Take each entry in turn and give its log10 of EC50.
1. F0103275B05 (VHH, entry includes the FLAG-HIS6 tag; also called F0103275B05 (parental)-FLAG-HIS6) VHH: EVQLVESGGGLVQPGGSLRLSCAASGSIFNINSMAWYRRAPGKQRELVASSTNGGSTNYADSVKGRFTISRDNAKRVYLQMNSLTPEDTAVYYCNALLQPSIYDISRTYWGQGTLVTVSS
2. F010301080 (VHH) VHH: EVQLVESGGGLVQPGGSLRLSCAASGMLFNANTQGWYRQAPGKQRELVAFIFWGGYVTYNDSVKGRFTISRDNAKRTMYLQMNSLKPEDSAIYYCSLSRYLGQGTLVTVSS
3. F0103464B09 (VHH, entry includes the FLAG-HIS6 tag; also called F0103464B09 (parental)-FLAG-HIS6; F103464B09) VHH: EVQLVESGGGLVQPGGSLRLSCATTSRAFIRDVFTGWYRRVPGKERELVARIYNGGNTNYADFAKGRFSISRDNAKKMVTLRMSNLKPEDTGVYYCLFSGTINTGREYRSGDYWGQGTLVTVSS
4. F0103362B08 (VHH, entry includes the FLAG-HIS6 tag; also called F0103362B08 (parental)-FLAG-HIS6) VHH: EVQLVESGGGLVQAGGSLRLSCAASVRPFSTSAMGWFRQAPEKEREAVAGILWNGIVTYYADSVKGRFTISRDNAKNEVYLQMNKLKPEDTAVYYCALDRDYGGRSFSAYEYEYWGQGTLVTVSS
5. F0103387G05 (VHH, entry includes the FLAG-HIS6 tag; also called F0103387G05 (parental)-FLAG-HIS6) VHH: EVQLVESGGGLVQAGGSLRLSCDASGRILRIGYMRWHRQGAGKQREFVARITDDSATDYADSVKGRFTISRDNAKNTVYLQMNNLNPEDTAVYYCEALVTASVRGGSIHSGTYWGRGTLVTVSS
6. F0103262C02 (VHH, entry includes the FLAG-HIS6 tag; also called F0103262C02 (parental)-FLAG-HIS6; F103262CO2) VHH: EVQLVESGGGLVQAGGSLTLSCAASGLPFGLYILGWIRRAPGKERDFVAAISRSGRDTVYANSVKGRFTISRDNAKNMVYLRMDNLRPEDTAAYYCAVDSVPRGTPTITESEYAIWGQGTLVTVSS

Reply:
1: 1.41; 2: 0.41; 3: 0.43; 4: 1.62; 5: 0.38; 6: 2.32

FYI, the data here is from patent US20240002497A1.
